Parameter melting point: see the listing below.

[[record]]
chem_smiles = "CCOc1nn(Cc2cccc(OCc3nc(-c4ccccc4)oc3C)n2)cc1CCC(=O)O"
reported_result = "144 to 145 °C"

[[record]]
chem_smiles = "Cc1oc(-c2ccco2)nc1COc1ccc(Cn2cc(CCC(=O)O)c(-c3ccc(F)cc3)n2)cc1"
reported_result = "125 to 126 °C"

[[record]]
chem_smiles = "O=C(O)CCc1cn(Cc2ccc(OCc3cncc(-c4ccccc4)c3)cc2)nc1-c1ccccc1"
reported_result = "161 to 162 °C"


Prompt: Look up melting point: Cc1oc(-c2ccccc2)nc1COc1ccc(Cn2cc(CCC(=O)O)c(-c3ccccc3)n2)cc1
Response: 179 to 180 °C

====

- System: KKA^y mice
- Test Details: Total cholesterol lowering action and plasma anti-arteriosclerosis index-enhancing action in mice
- Type: in vivo
- Condition: Mus musculus, po, 96 h, 0.001% in powdery diet, four days, percent increase of [(HDL cholesterol/total cholesterol)×100], non-treatment group taken as 100%, read-out: Plasma anti-arteriosclerosis index-enchancing action (%)
Measurement Type: change in vivo at 0.001 % (%)
# output: bare number, implied unit %

Some compounds with known change in vivo at 0.001 % results, for comparison:
[[record]]
compound = "CCOc1nn(Cc2ccc(OCc3nc(-c4ccco4)oc3C)c(OC)c2)cc1CCC(=O)O [Example 174]"
measurement_type = "change in vivo at 0.001 %"
reported_result = 10

[[record]]
compound = "CCOc1nn(Cc2ccc(OCc3nc(-c4cccs4)oc3C)cc2)cc1CCC(=O)O [Example 189]"
measurement_type = "change in vivo at 0.001 %"
reported_result = 20

[[record]]
compound = "CCOc1nn(Cc2ccc(OCc3nc(-c4ccccc4)oc3C)c(OC)c2)cc1CCC(=O)O [Example 172]"
measurement_type = "change in vivo at 0.001 %"
reported_result = 11

[[record]]
compound = "CCCOc1nn(Cc2ccc(OCc3nc(-c4ccccc4)oc3C)cc2)cc1CCC(=O)O [Example 156]"
measurement_type = "change in vivo at 0.001 %"
reported_result = 15

[[record]]
compound = "Cc1oc(-c2cccs2)nc1COc1ccc(Cn2cc(CCC(=O)O)c(-c3ccccc3)c2)cc1 [Example 9]"
measurement_type = "change in vivo at 0.001 %"
reported_result = 12


# evaluate next
Prompt: Look up change in vivo at 0.001 %: CCOc1nn(Cc2ccc(OCc3nc(-c4ccco4)oc3C)cc2)cc1CCC(=O)O [Example 167]
Response: 9

====

Parameter EC50: see the listing below.
- Target Or Test System: PPARγ-RXRα heterodimer (Homo sapiens, UniProt P37231)
- Sequence (P37231 29-505): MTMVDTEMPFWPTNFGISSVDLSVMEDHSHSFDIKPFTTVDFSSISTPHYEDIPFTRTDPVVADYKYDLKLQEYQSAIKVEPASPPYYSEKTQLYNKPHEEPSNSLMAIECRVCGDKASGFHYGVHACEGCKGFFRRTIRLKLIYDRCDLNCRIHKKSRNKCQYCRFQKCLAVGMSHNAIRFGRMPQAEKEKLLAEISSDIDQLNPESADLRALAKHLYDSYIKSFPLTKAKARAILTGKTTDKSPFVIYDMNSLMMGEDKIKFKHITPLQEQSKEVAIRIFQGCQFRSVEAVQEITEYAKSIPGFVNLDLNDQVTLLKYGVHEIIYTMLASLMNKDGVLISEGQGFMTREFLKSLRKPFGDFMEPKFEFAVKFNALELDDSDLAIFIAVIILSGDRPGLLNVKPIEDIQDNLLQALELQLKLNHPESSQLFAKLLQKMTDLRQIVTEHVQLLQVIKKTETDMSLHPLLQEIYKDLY
- Sequence (P19793 whole entry partner): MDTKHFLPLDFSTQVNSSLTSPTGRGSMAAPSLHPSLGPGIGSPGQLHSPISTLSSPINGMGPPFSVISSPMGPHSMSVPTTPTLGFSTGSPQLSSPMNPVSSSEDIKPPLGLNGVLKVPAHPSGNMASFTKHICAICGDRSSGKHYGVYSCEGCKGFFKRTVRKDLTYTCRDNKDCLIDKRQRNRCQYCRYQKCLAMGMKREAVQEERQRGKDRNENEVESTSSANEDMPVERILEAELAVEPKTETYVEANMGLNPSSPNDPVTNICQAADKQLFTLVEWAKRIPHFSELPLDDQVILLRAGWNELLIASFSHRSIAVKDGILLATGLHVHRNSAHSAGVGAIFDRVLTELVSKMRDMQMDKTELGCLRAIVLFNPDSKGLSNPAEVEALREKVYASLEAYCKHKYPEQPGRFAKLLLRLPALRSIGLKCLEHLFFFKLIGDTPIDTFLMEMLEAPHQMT
- Test Details: PPARγ-RXRα heterodimer ligand activity (luciferase reporter, PPARγ:RXRα:4ERPP/CHO-K1 cells)
- Condition: 48 hours, concentration for 50% of the maximum fold induction
# output: bare number, implied unit nM

[[record]]
chem_smiles = "CCOC(=O)CCc1cn(Cc2ccc(OCc3nc(-c4ccco4)oc3C)cc2)nc1-c1ccc(F)cc1"
output_unit = "nM"
reported_result = 2

[[record]]
chem_smiles = "O=C(O)CCc1cn(Cc2ccc(OCc3coc(-c4ccccc4)n3)cc2)cc1-c1ccccc1"
output_unit = "nM"
reported_result = 13

[[record]]
chem_smiles = "O=C(O)CCc1cn(Cc2ccc(OCc3csc(-c4cccs4)n3)cc2)cc1-c1ccccc1"
output_unit = "nM"
reported_result = 57

[[record]]
chem_smiles = "CCOc1nn(Cc2ccc(OCc3cn(-c4ccccn4)nc3C)cc2)cc1CCC(=O)O"
output_unit = "nM"
reported_result = 53


Prompt: Look up EC50: Cc1oc(-c2ccccc2)nc1COc1ccc(Cn2cc(CCC(=O)O)c(-c3ccccc3)n2)cn1
Response: 0.22
